Here, each record is paired with measured Ks (substrate dissociation constant, E + S ⇌ ES) data.
target: S. pombe lumazine synthase (recombinant homopentameric) (Schizosaccharomyces pombe, UniProt Q9UUB1); experiment: Kinetic assay of lumazine synthase inhibitors, S. pombe enzyme; format: biochemical; conditions: substrate 2 constant, substrate 1 varied; Tris·HCl pH 7.0
Sequence (Q9UUB1 whole entry): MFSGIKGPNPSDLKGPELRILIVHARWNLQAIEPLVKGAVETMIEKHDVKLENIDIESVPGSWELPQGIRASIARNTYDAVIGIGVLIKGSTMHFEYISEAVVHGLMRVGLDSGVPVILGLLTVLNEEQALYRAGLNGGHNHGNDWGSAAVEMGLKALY
# answer = value followed by unit

{"COMPOUND": "CCOC(=O)C(=O)Nc1c(OC[C@H](O)[C@H](O)[C@H](O)CO)[nH]c(=O)[nH]c1=O [Compound 36]", "RESULT": "6.4 ± 0.6 µM"}
{"COMPOUND": "COC(=O)C(=O)Nc1c(OC[C@H](O)[C@H](O)[C@H](O)CO)[nH]c(=O)[nH]c1=O [Compound 37]", "RESULT": "1.7 ± 0.2 µM"}
{"COMPOUND": "Nc1c(OC[C@@H](O)[C@H](O)[C@@H](O)CO)[nH]c(=O)[nH]c1=O [Compound 29]", "RESULT": "1.2 ± 0.1 µM"}

What Ks (substrate dissociation constant, E + S ⇌ ES) value was documented for this compound, O=c1[nH]c(OC[C@H](O)[C@H](O)[C@H](O)CO)c([N+](=O)[O-])c(=O)[nH]1 [Compound 22] ? 1.4 ± 0.1 µM

* * *

target: M. tuberculosis riboflavin synthase (recombinant) (Mycobacterium tuberculosis, UniProt P9WK35); test: Kinetic assay of riboflavin synthase inhibitors, M. tuberculosis enzyme; type: biochemical; conditions: substrate 3 varied; Tris·HCl pH 7.0
Sequence (P9WK35 whole entry): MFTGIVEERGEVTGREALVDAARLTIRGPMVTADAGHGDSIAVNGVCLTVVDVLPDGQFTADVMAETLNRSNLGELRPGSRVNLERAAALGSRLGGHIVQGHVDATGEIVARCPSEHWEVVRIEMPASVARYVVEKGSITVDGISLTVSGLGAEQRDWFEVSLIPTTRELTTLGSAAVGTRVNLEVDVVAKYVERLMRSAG
MEASURED METRIC: Kis (ES + I ⇌ ESI) (µM)
Respond numerically; units are µM and should not be typed.

Reference set, count: 2
{"INPUT SMILES": "CC(C)C(=O)Nc1c(OC[C@H](O)[C@H](O)[C@H](O)CO)[nH]c(=O)[nH]c1=O", "RESULT": 698}
{"INPUT SMILES": "C=C(C)C(=O)Nc1c(Cl)[nH]c(=O)[nH]c1=O", "RESULT": 694}

What Kis (ES + I ⇌ ESI) value was documented for this compound, "Nc1c(OC[C@@H](O)[C@H](O)[C@@H](O)CO)[nH]c(=O)[nH]c1=O" ? 577

* * *

molecular target: M. tuberculosis lumazine synthase (recombinant homopentameric) (Mycobacterium tuberculosis, UniProt P9WHE9); format: biochemical; conditions: substrate 2 constant, substrate 1 varied; Tris·HCl pH 7.0
Sequence (P9WHE9 whole entry): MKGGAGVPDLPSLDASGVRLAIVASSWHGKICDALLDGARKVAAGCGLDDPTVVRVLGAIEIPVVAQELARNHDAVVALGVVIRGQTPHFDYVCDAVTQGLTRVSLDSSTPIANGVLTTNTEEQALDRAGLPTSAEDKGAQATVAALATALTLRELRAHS
MEASURED METRIC: Ks (substrate dissociation constant, E + S ⇌ ES) (µM)
Respond numerically; units are µM and should not be typed.

Reference set, count: 5
{"MOLECULE": "Nc1c(OC[C@@H](O)[C@H](O)[C@@H](O)CO)[nH]c(=O)[nH]c1=O [Compound 29]", "RESULT": 27}
{"MOLECULE": "CC(Cl)C(=O)Nc1c(NC[C@H](O)[C@H](O)[C@H](O)CO)[nH]c(=O)[nH]c1=O (stereo partly drawn) [Compound 60]", "RESULT": 17}
{"MOLECULE": "O=c1[nH]c(OC[C@H](O)[C@H](O)[C@H](O)CO)c([N+](=O)[O-])c(=O)[nH]1 [Compound 22]", "RESULT": 25}
{"MOLECULE": "C=C(C)C(=O)Nc1c(SC[C@H](O)[C@H](O)[C@H](O)CO)[nH]c(=O)[nH]c1=O [Compound 51]", "RESULT": 17}
{"MOLECULE": "CCC(=O)Nc1c(SC[C@H](O)[C@H](O)[C@H](O)CO)[nH]c(=O)[nH]c1=O [Compound 49]", "RESULT": 11}

What Ks (substrate dissociation constant, E + S ⇌ ES) value was documented for this molecule, C=C(C)C(=O)Nc1c(OC[C@H](O)[C@H](O)[C@H](O)CO)[nH]c(=O)[nH]c1=O [Compound 46] ? 12

Then CCOC(=O)C(=O)Nc1c(OC[C@H](O)[C@H](O)[C@H](O)CO)[nH]c(=O)[nH]c1=O [Compound 36] ? 34

Then C=C(C)C(=O)Nc1c(Cl)[nH]c(=O)[nH]c1=O [Compound 78] ? 18

Then CC1(O)C(=O)Nc2c([nH]c(=O)[nH]c2=O)N1C[C@H](O)[C@H](O)[C@H](O)CO (stereo partly drawn) [Compound 69] ? 19

Then COC(=O)C(=O)Nc1c(OC[C@H](O)[C@H](O)[C@H](O)CO)[nH]c(=O)[nH]c1=O [Compound 37] ? 29

Then O=C(CCl)Nc1c(NC[C@H](O)[C@H](O)[C@H](O)CO)[nH]c(=O)[nH]c1=O [Compound 63] ? 24

Then CC(C)C(=O)Nc1c(OC[C@H](O)[C@H](O)[C@H](O)CO)[nH]c(=O)[nH]c1=O [Compound 40] ? 16

Then C=C(C)C(=O)Nc1c(NC[C@H](O)[C@H](O)[C@H](O)CO)[nH]c(=O)[nH]c1=O [Compound 56] ? 19

Then CCC(=O)Nc1c(OC[C@H](O)[C@H](O)[C@H](O)CO)[nH]c(=O)[nH]c1=O [Compound 43] ? 18

Then O=C(CC(F)(F)F)Nc1c(NC[C@H](O)[C@H](O)[C@H](O)CO)[nH]c(=O)[nH]c1=O [Compound 66] ? 20

* * *

Here, each record is paired with measured Ks (substrate dissociation constant, E + S ⇌ ES) data.
biological target: M. tuberculosis riboflavin synthase (recombinant) (Mycobacterium tuberculosis, UniProt P9WK35); assay: Kinetic assay of riboflavin synthase inhibitors, M. tuberculosis enzyme; format: biochemical; conditions: substrate 3 varied; Tris·HCl pH 7.0
Respond numerically; units are µM and should not be typed.

{"COMPOUND": "C=C(C)C(=O)Nc1c(SC[C@H](O)[C@H](O)[C@H](O)CO)[nH]c(=O)[nH]c1=O [Compound 51]", "RESULT": 10}
{"COMPOUND": "O=C(CC(F)(F)F)Nc1c(NC[C@H](O)[C@H](O)[C@H](O)CO)[nH]c(=O)[nH]c1=O [Compound 66]", "RESULT": 6.6}
{"COMPOUND": "O=C(CCl)Nc1c(NC[C@H](O)[C@H](O)[C@H](O)CO)[nH]c(=O)[nH]c1=O [Compound 63]", "RESULT": 8.6}
{"COMPOUND": "Nc1c(OC[C@@H](O)[C@H](O)[C@@H](O)CO)[nH]c(=O)[nH]c1=O [Compound 29]", "RESULT": 5.6}
{"COMPOUND": "C=C(C)C(=O)Nc1c(OC[C@H](O)[C@H](O)[C@H](O)CO)[nH]c(=O)[nH]c1=O [Compound 46]", "RESULT": 9.2}
{"COMPOUND": "CC1(O)C(=O)Nc2c([nH]c(=O)[nH]c2=O)N1C[C@H](O)[C@H](O)[C@H](O)CO (stereo partly shown) [Compound 69]", "RESULT": 8.9}

What Ks (substrate dissociation constant, E + S ⇌ ES) value was documented for this compound, COC(=O)C(=O)Nc1c(OC[C@H](O)[C@H](O)[C@H](O)CO)[nH]c(=O)[nH]c1=O [Compound 37] ? 4.1

* * *

target: M. tuberculosis lumazine synthase (recombinant homopentameric) (Mycobacterium tuberculosis); type: biochemical; details: substrate 2 constant, substrate 1 varied; Tris·HCl pH 7.0
Here, each record is paired with measured Kcat (rate constant ES → E + P) data.
Respond numerically; units are m^−1 and should not be typed.

Reference set, count: 5
{"MOLECULE": "C=C(C)C(=O)Nc1c(Cl)[nH]c(=O)[nH]c1=O", "Kcat (rate constant ES → E + P) (m^−1)": 0.53}
{"MOLECULE": "CC(Cl)C(=O)Nc1c(NC[C@H](O)[C@H](O)[C@H](O)CO)[nH]c(=O)[nH]c1=O (stereo partly drawn)", "Kcat (rate constant ES → E + P) (m^−1)": 0.85}
{"MOLECULE": "CC1(O)C(=O)Nc2c([nH]c(=O)[nH]c2=O)N1C[C@H](O)[C@H](O)[C@H](O)CO (stereo partly drawn)", "Kcat (rate constant ES → E + P) (m^−1)": 0.59}
{"MOLECULE": "O=C(CCl)Nc1c(NC[C@H](O)[C@H](O)[C@H](O)CO)[nH]c(=O)[nH]c1=O", "Kcat (rate constant ES → E + P) (m^−1)": 0.62}
{"MOLECULE": "C=C(C)C(=O)Nc1c(NC[C@H](O)[C@H](O)[C@H](O)CO)[nH]c(=O)[nH]c1=O", "Kcat (rate constant ES → E + P) (m^−1)": 0.52}

What Kcat (rate constant ES → E + P) value was documented for this molecule, "O=C(CC(F)(F)F)Nc1c(NC[C@H](O)[C@H](O)[C@H](O)CO)[nH]c(=O)[nH]c1=O" ? 0.76

* * *

Here, each record is paired with measured Ks (substrate dissociation constant, E + S ⇌ ES) data.
target: E. coli riboflavin synthase (recombinant) (Escherichia coli, UniProt P0AFU8); assay: Kinetic assay of riboflavin synthase inhibitors, E. coli enzyme; format: biochemical; details: substrate 3 varied; Tris·HCl pH 7.0
Sequence (P0AFU8 whole entry): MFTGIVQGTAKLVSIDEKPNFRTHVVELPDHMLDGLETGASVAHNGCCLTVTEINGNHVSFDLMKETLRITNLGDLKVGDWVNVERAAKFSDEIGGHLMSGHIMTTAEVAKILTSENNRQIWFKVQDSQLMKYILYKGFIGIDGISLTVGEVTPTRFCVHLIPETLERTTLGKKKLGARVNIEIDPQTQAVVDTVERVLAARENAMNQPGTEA
# answer = value followed by unit

Reference set, count: 3
{"INPUT SMILES": "O=c1[nH]c(OC[C@H](O)[C@H](O)[C@H](O)CO)c([N+](=O)[O-])c(=O)[nH]1", "RESULT": "2.6 ± 0.2 µM"}
{"INPUT SMILES": "CCOC(=O)C(=O)Nc1c(OC[C@H](O)[C@H](O)[C@H](O)CO)[nH]c(=O)[nH]c1=O", "RESULT": "3.0 ± 0.3 µM"}
{"INPUT SMILES": "Nc1c(OC[C@@H](O)[C@H](O)[C@@H](O)CO)[nH]c(=O)[nH]c1=O", "RESULT": "2.5 ± 0.1 µM"}

What Ks (substrate dissociation constant, E + S ⇌ ES) value was documented for this compound, "COC(=O)C(=O)Nc1c(OC[C@H](O)[C@H](O)[C@H](O)CO)[nH]c(=O)[nH]c1=O" ? 3.1 ± 0.2 µM

FYI, the data here is from paper PMC3444172.
